Assay: physchem
Details: pH 5, aqueous buffer
Reported solubility values for a set of compounds
recorded_metric: solubility (µM)

* COC(=O)N[C@H](C(=O)N[C@@H](Cc1ccccc1)[C@@H](O)CN(Cc1ccc(-c2ccccn2)cc1)NC(=O)[C@@H](NC(=O)OC)C(C)(C)C)C(C)(C)C | 42
* Cc1cccc(C)c1OCC(=O)N[C@@H](Cc1ccccc1)[C@@H](O)C[C@H](Cc1ccccc1)NC(=O)[C@H](C(C)C)N1CCCNC1=O | 70
* Cc1c(O)cccc1C(=O)N[C@@H](CSc1ccccc1)[C@H](O)CN1C[C@H]2CCCC[C@H]2C[C@H]1C(=O)NC(C)(C)C | 42
